Target: T1, human DLL3 over-expressed on 293 cells (human, UniProt Q9NYJ7 27-618)
T1 construct: identical extracellular and transmembrane regions; also called hDLL3; Delta-like ligand 3
T1 sequence: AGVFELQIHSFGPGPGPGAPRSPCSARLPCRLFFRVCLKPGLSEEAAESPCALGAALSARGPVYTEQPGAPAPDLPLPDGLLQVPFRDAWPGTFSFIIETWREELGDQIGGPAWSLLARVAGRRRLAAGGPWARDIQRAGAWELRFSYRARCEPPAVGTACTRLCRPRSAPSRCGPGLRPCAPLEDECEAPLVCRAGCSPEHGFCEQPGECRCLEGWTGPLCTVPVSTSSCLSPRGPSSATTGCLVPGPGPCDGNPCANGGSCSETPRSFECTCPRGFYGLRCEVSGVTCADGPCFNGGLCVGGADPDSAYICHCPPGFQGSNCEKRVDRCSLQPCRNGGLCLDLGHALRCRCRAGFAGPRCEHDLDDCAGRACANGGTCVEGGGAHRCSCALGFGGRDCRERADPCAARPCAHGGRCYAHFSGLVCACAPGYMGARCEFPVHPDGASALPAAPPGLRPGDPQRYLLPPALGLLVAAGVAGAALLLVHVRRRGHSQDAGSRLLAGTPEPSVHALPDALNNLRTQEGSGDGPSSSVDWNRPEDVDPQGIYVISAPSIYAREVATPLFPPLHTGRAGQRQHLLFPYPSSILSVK
Experiment: flow cytometry, 293 cells over-expressing human DLL3
MEASURED ENDPOINT: binding result

BINDER	MEASUREMENT
SC16.8 (antibody, V domains shown, murine mAb; V regions only) VH: QAQLQQSGAELVRPGTSVKVSCKASGYAFTNYLIEWVKQRPGQGLEWIGVINPGTGGTNYNENFKGKATLTADKSSSTAYMQLSSLTSDDSAVYFCARSPYDYHEGAMDYWGQGTSVTVSS VL: EIQMTQSPSSMSASLGDRITITCQATQDIVKNLNWYQQKPGKPPSFLIYYAIELAEGVPSRFSGSGSGSDYSLTISNLESEDFADYYCLQFYEFPFTFGAGTKLELK	binds
SC16.56 (antibody, V domains shown, murine mAb; V regions only) VH: QIQLVQSGPELKKPGETVKISCKASGYTFTNYGMNWVKQAPGKGLKWMAWINTYTGEPTYADDFKGRFAFSLETSASTASLQIINLKNEDTATYFCARIGDSSPSDYWGQGTTLTVSS VL: SIVMTQTPKFLLVSAGDRVTITCKASQSVSNDVVWYQQKPGQSPKLLIYYASNRYTGVPDRFAGSGYGTDFSFTISTVQAEDLAVYFCQQDYTSPWTFGGGTKLEIR	binds
SC16.25 (antibody, V domains shown, murine mAb; V regions only) VH: QVTLKESGPGILQPSQTLSLTCSFSGFSLSTSGMGVGWIRQPSGEGLEWLTDIWWDDNKYYNPSLKSRLTISKDTSSNQVFLNITSVDTADTATYYCARRVNYYYDPYYAMDYWGQGTSVTVSS VL: QIVLTQSPAIMSASPGEKVTMTCSASSSVSYMHWYQQKSGTSPKRWIYDSSKLASGVPARFSGSGSGTSYSLTISSMEAEDAATYYCQQWSSNPLTFGAGTKLELK	binds
